study-target: T1, Claudin 18.2 (CLDN18.2), expressed on CHOS-CLDN 18.2 / HEK293-CLDN 18.2 / HCC827-CLDN 18.2 cells (human, UniProt P56856-2 1-261)
T1 construct: whole, on cells; The species is not repeated for the CHOS-CLDN 18.2 cells; also called claudin-18A2
assay: FACS, CHOS-CLDN18.2 cells, 0.078 µg/ml
readout-label: FACS reading

[
  {
    "binder": "QP201202 (antibody, human IgG1, V domains shown, Chimeric; also called 44C6) VH: EVQLQQSGPELVKPGASVKMSCKASGYTFTNYFVHWVKQKPGQGLEWIGYINPYNDDTKYNEKFKGKATLTSDKSSSTAYMDLSSLTSEDSAVYYCLSLRFFAYWGQGTLVTVSA VL: DIVMTQSPSSLTVTAGEKVTMSCKSSQSLLNSGNQKNYLTWYQQKPGQAPKLLIYWASTRESGVPDRFIGSGSGTDFTLTISHVQAEDLAVYFCQNDYSYPLTFGAGTNLELK",
    "readout-label": "FACS reading",
    "numeric-result": 12600
  },
  {
    "binder": "QP14581454 (antibody, human IgG1, kappa, V domains shown, Humanized from QP201202) VH: QVQLVQSGAEVKKPGASVKVSCKASGYTFTNYFVHWVKQAPGQGLEWIGYINPYNDDTKYNEKFKGKATLTRDTSTSTVYMELSSLRSEDTAVYYCLSLRFFAYWGQGTLVTVSS VL: DIVMTQSPDSLAVSLGERATISCKSSQSLLNSGNQKNYLTWYQQKPGQAPKLLIYWASTRESGVPDRFSGSGSGTDFTLTISSVQAEDVAVYFCQNDYSYPLTFGGGTKVEIKR",
    "readout-label": "FACS reading",
    "numeric-result": 11500
  },
  {
    "binder": "QP024025 (antibody, human IgG1, V domains shown, also called IMAB362; 175D10(IMAB362)) VH: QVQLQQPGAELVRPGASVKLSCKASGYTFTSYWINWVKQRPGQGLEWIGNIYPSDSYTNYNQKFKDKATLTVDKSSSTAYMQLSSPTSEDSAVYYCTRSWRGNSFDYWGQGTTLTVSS VL: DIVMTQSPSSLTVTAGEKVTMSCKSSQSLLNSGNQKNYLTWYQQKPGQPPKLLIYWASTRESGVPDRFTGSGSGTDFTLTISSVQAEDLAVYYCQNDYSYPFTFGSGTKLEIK",
    "readout-label": "FACS reading",
    "numeric-result": 18200
  },
  {
    "binder": "QP14561454 (antibody, human IgG1, kappa, V domains shown, Humanized from QP201202) VH: QVQLVQSGAEVKKPGASVKVSCKASGYTFTNYFVHWVRQAPGQGLEWMGYINPYNDDTKYNEKFKGRVTMTRDTSTSTVYMELSSLRSEDTAVYYCLSLRFFAYWGQGTLVTVSS VL: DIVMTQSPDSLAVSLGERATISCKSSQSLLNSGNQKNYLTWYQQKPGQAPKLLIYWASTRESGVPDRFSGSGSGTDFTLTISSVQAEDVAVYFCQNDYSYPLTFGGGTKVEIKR",
    "readout-label": "FACS reading",
    "numeric-result": 13400
  },
  {
    "binder": "QP14581453 (antibody, human IgG1, kappa, V domains shown, Humanized from QP201202) VH: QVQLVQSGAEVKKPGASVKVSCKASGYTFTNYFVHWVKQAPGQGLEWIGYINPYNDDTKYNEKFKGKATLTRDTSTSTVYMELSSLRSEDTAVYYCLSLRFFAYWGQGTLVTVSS VL: DIVMTQSPDSLAVSLGERATISCKSSQSLLNSGNQKNYLTWYQQKPGQAPKLLIYWASTRESGVPDRFSGSGSGTDFTLTISSLQAEDVAVYYCQNDYSYPLTFGGGTKVEIKR",
    "readout-label": "FACS reading",
    "numeric-result": 13600
  }
]
